readout-label: melting point

Example compounds with recorded melting point:
- compound: "CC(C)C(C(N)=O)c1cccnc1 (configuration not stated)"
  readout-label: "melting point"
  result: "176 to 178 °C"
- compound: "CC(Cl)C(=O)c1c(N)n(C)c(=O)n(C)c1=O (configuration not stated)"
  readout-label: "melting point"
  result: "140 to 142 °C"
- compound: "COc1ccc2c(CC(=O)O)cc(=O)oc2c1"
  readout-label: "melting point"
  result: "183 to 187 °C"
- compound: "CC1=C(C(=O)Nc2ccccc2)C2(CCCCC2)C(C#N)=C(S)N1"
  readout-label: "melting point"
  result: "238 to 240 °C"
- compound: "Cc1c(C(=O)O)nnn1-c1cccc2ncccc12"
  readout-label: "melting point"
  result: "209 to 211 °C"
- compound: "Cc1cccc(-c2nc(CCl)no2)c1"
  readout-label: "melting point"
  result: "44 to 46 °C"

Qu. Name the reported melting point value associated with the compound O=C1CC2(Cc3ccccc3C2)C(=O)O1
Ans. 164 to 166 °C

Qu. Name the reported melting point value associated with the compound CCOC(=O)c1noc(-c2cccc(F)c2-n2ccnc2)n1
Ans. 128 to 130 °C

Qu. Name the reported melting point value associated with the compound Cc1ccc2c(c1)nc(S)n2Cc1ccccc1Cl
Ans. 189 to 191 °C

Qu. Name the reported melting point value associated with the compound O=C(O)c1cnn(-c2ncccc2Cl)c1C(F)(F)C(F)(F)F
Ans. 141 to 143 °C

Qu. Name the reported melting point value associated with the compound O=C(O)C1(c2cccc(Br)c2)CCCCC1
Ans. 164 to 166 °C

Qu. Name the reported melting point value associated with the compound CNc1cc(C(F)(F)F)nc2ccccc12
Ans. 159 to 161 °C

Qu. Name the reported melting point value associated with the compound NC(=O)c1cc(-c2cccs2)on1
Ans. 190 to 192 °C

Qu. Name the reported melting point value associated with the compound N#Cc1cnc2ccccc2c1N1CCNCC1
Ans. 160 to 162 °C
